TARGET OR SYSTEM: dopamine D2L receptor (Homo sapiens)
Sequence (P14416 whole entry): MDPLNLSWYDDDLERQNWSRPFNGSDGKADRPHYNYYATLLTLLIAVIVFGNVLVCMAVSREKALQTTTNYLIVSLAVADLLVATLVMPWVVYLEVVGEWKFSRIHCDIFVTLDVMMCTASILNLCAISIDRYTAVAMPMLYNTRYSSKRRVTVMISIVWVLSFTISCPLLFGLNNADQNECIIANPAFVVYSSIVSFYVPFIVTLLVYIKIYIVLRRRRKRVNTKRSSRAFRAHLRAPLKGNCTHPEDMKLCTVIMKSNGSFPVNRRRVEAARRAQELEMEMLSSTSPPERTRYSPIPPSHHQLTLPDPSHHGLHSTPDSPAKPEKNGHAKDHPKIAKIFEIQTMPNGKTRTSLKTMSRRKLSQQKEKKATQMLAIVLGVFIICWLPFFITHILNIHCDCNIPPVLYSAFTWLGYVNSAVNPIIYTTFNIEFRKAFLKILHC
METHOD: Radioligand binding, D2 ([3H]-raclopride displacement)
EXPERIMENTAL ENDPOINT: pKi
# reply with the number alone; pKi is -log10 of concentration in mol/L

O=S(=O)(c1cccc(Cl)c1)n1ccc2c(N[C@@H]3CCNC3)nc3ccccc3c21 [Compound 7] = 6.12
O=S(=O)(c1ccc(F)cc1)n1ccc2c(NC3CCNC3)nc3ccccc3c21 (stereo not shown) [Compound 11] = 6.18
O=S(=O)(c1cccc2ccccc12)n1ccc2c(NC3CCNC3)nc3ccccc3c21 (stereo not shown) [Compound 21] = 5.65

Turning to the following molecule.
In one line, give reported pKi of the entry O=S(=O)(c1cccc(C(F)(F)F)c1)n1ccc2c(NC3CCNC3)nc3ccccc3c21 (stereo not shown) [Compound 14] .
5.89
